Hi there, I'd appreciate the recorded half-life at 1 μM for every entry that follows.
- procedure-summary: Liver microsomal stability, rat liver microsomes
- Assay type: in vitro ADME
- setup-conditions: 1 μM compound, NADPH, read-out: t1/2 (min) in RLM

Task item: Assign half-life at 1 μM to the following record: COc1ncnc(C2CC2)c1-c1ncc2nc(C3CCC3)n(Cc3ccc(-n4nc(C(F)(F)F)cc4C)cc3)c2n1
Reply: > 25 min

Task item: Assign half-life at 1 μM to the following record: CCn1cc(C(F)(F)F)nc1-c1ccc([C@H](C)n2ncc3cnc(-c4c(OC)ncnc4C(C)C)nc32)cc1F
Reply: < 25 min

Task item: Assign half-life at 1 μM to the following record: COc1ncnc(C2CC2)c1-c1ncc2cnn([C@@H](C)c3ccc(-c4nc(C(F)(F)F)cn4C(C)C)cc3)c2n1
Reply: > 25 min

Task item: Assign half-life at 1 μM to the following record: CCS(=O)(=O)c1ccccc1-c1ncc2cnn(Cc3ccc(-c4nc(C(F)(F)F)cn4C)cc3)c2n1
Reply: < 25 min

Task item: Assign half-life at 1 μM to the following record: COc1ncnc(C(C)C)c1-c1ncc2cnn(Cc3ccc(-c4nc(C(F)(F)F)cn4C(C)C)cc3)c2n1
Reply: > 25 min

Task item: Assign half-life at 1 μM to the following record: COc1ncnc(C2CC2)c1-c1ncc2c(OC)nn([C@@H](C)c3ccc(-c4nc(C(F)(F)F)c(Br)n4C)cc3)c2n1
Reply: > 25 min

Task item: Assign half-life at 1 μM to the following record: CC(C)c1ccccc1-c1ncc2cnn(Cc3ccc(-c4nc(C(F)(F)F)cn4C4CN(C)C4)cc3)c2n1
Reply: < 25 min

Task item: Assign half-life at 1 μM to the following record: COc1ncnc(C(C)(C)C)c1-c1ncc2cnn(Cc3ccc(-c4nc(C(F)(F)F)cn4C)cc3)c2n1
Reply: < 25 min

Task item: Assign half-life at 1 μM to the following record: CC(C)c1ccccc1-c1ncc2ncn(Cc3ccc(-c4nc(C(F)(F)F)cn4C)cc3)c2n1
Reply: < 25 min

Task item: Assign half-life at 1 μM to the following record: Cc1cc(C(F)F)nn1-c1ccc(Cn2ncc3cnc(-c4cccnc4C(C)C)nc32)cc1
Reply: < 25 min

Task item: Assign half-life at 1 μM to the following record: COc1ncnc(C2CC2)c1-c1ncc2cnn([C@@H]3CCc4cc(-c5nc(C(F)(F)F)cn5C(C)C)ccc43)c2n1
Reply: > 25 min
